Target: HLA-A*69:01
Experiment: IEDB peptide-MHC binding, purified MHC/direct/fluorescence; filed as Kd, often an IC50 or EC50 that approximates it; bounds were set here for any values at or beyond the usual limits of such assays
Conditions: source organism: Influenza A virus (A/camel/Mongolia/1982(H1N1))
measured_endpoint: Kd

Param readout= Kd; system= HLA-A*69:01; entry= "HIPEVCLKW" ; returns value.
≥ 20 µM

====

Molecular target: HLA-B*44:03
Experiment: IEDB peptide-MHC binding, purified MHC/competitive/radioactivity; filed as Kd, often an IC50 or EC50 that approximates it; bounds were set here for any values at or beyond the usual limits of such assays
Conditions: source organism: Mammarenavirus lassaense
measured_endpoint: Kd (µM)
Give your result in µM as a bare value.

If you can, please state the reported Kd value of "SEGNATPGGY" .
7.25

====

Molecular target: HLA-B*40:01
Test: IEDB peptide-MHC binding, purified MHC/direct/fluorescence; filed as Kd, often an IC50 or EC50 that approximates it; bounds were set here for any values at or beyond the usual limits of such assays
Conditions: source organism: Yersinia pestis
pKd: −log10 of the molar value.
Here the recorded pKd is given for each entry.

Known results for sequences:
>  <chain_sequence>
QLKSRAAVL

>  <system_name>
HLA-B*40:01

>  <result>
≤ 4.70

$$$$
>  <chain_sequence>
FMSLQSGDV

>  <system_name>
HLA-B*40:01

>  <result>
≤ 4.70

$$$$

Next sequence, please.
If you can, please state the reported pKd value of "FLPPQIPVI" .
≤ 4.70

====

Molecular target: HLA-B*57:01
Test: IEDB peptide-MHC binding, purified MHC/competitive/fluorescence; filed as Kd, often an IC50 or EC50 that approximates it; bounds were set here for any values at or beyond the usual limits of such assays
Settings: source organism: Francisella tularensis subsp. tularensis FSC198
measured_endpoint: Kd

If you can, please state the reported Kd value of "IYTVIYYIF" .
≥ 20 µM

====

Target: HLA-A*02:12
Test: IEDB peptide-MHC binding, purified MHC/competitive/fluorescence; filed as Kd, often an IC50 or EC50 that approximates it; bounds were set here for any values at or beyond the usual limits of such assays
Details: source organism: Vibrio antiquarius
measured_endpoint: Kd
Please answer in the form of a number followed by its unit of measurement.

If you can, please state the reported Kd value of "VTGCASLYV" .
36.8 nM

====

Molecular target: HLA-A*26:01
Assay: IEDB peptide-MHC binding, purified MHC/direct/fluorescence; filed as Kd, often an IC50 or EC50 that approximates it; bounds were set here for any values at or beyond the usual limits of such assays
Conditions: source organism: Stutzerimonas stutzeri
pKd: −log10 of the molar value.
measured_endpoint: pKd

If you can, please state the reported pKd value of "GRGQILLGK" .
≤ 4.70

====

Target: HLA-B*18:01
Assay: IEDB peptide-MHC binding, purified MHC/direct/fluorescence; filed as Kd, often an IC50 or EC50 that approximates it; bounds were set here for any values at or beyond the usual limits of such assays
Conditions: source organism: Burkholderia mallei ATCC 23344
measured_endpoint: Kd

If you can, please state the reported Kd value of "MSADNAGAL" .
≥ 20 µM

====

Molecular target: HLA-B*39:01
Experiment: IEDB peptide-MHC binding, purified MHC/direct/fluorescence; filed as Kd, often an IC50 or EC50 that approximates it; bounds were set here for any values at or beyond the usual limits of such assays
Conditions: source organism: Vibrio parahaemolyticus RIMD 2210633
measured_endpoint: Kd

If you can, please state the reported Kd value of "DMRKRIEAF" .
≥ 20 µM

Just for reference, the Immune Epitope Database (IEDB) is where these values come from.
